The measured values listed here are drawn from a melting point compilation (Tetko et al.; mined from patent text by program, amines drawn as free bases though some values may be those of a salt).

measured.quantity: melting point

>>> df
                                   molecule  reported_measurement
0  CC(=O)Nc1nc(O)c2cc(C=C(C)c3ccc(C(=O)O)cc3)cnc2n1              > 250 °C
1  Nc1nc(-c2cc(Cl)ccc2Cl)nc(N2CC(O)CC2C(=O)O)n1 (stereo not given)         138 to 145 °C
2     CC1(C)OC(=O)Nc2ccc(-c3cc(C#N)cs3)cc21         255 to 260 °C
3  N#Cc1ccc2sc3c(c2c1)CC(C=O)CC3 (stereo not given)         172 to 173 °C
4  CC(CO)NC(=O)c1cnc(N2CCC(N3C(=O)OCc4ccccc43)CC2)c(Cl)c1 (stereo not given)         125 to 128 °C

* * *

Listed next: entries and their corresponding melting point.
measured.quantity: melting point

                                    compound  measured_quantity  reported_measurement
 0    COc1cc2cc(OS(=O)(=O)C(F)(F)F)cnc2cc1OC      melting point         82.5 to 84 °C
 1  CN1C(=O)C2CN(Cc3ccncc3)CCN2c2ccccc21 (stereo unspecified)      melting point         252 to 254 °C
 2  O=C(O)c1cccc(-c2nc3cc(N4CCCC4=O)ccc3o2)c1      melting point         190 to 192 °C
 3    Cc1cc([N+](=O)[O-])cc2c(Cl)c(C#N)cnc12      melting point         210 to 212 °C
 4     CN1c2ccccc2CN(C(=O)C(F)(F)F)c2ccccc21      melting point         104 to 106 °C
 5            CC(=O)c1c(O)ccc2c(C)cc(=O)oc12      melting point         167 to 169 °C
 6  O=C(CCc1ccccc1)N[C@H](Cc1ccc(C(F)(F)F)cc1)[C@@H](O)c1ccc(F)cc1F (racemic)      melting point         126 to 127 °C
 7  CCCCCCCCCCCCCCCC(=O)C1(O)OC(COCc2ccccc2)C(OCc2ccccc2)C(OCc2ccccc2)C1OCc1ccccc1 (stereo unspecified)      melting point           52 to 53 °C
 8  COc1cc(C2=NNC(=O)Cc3cc4c(cc32)OCO4)ccc1N      melting point         147 to 150 °C
 9  O=C(NCc1ccccc1)Nc1nnc(C(=O)OCc2ccccc2)s1      melting point         188 to 192 °C
10  O=C(c1ccccc1)n1c2c(c3ccccc31)CC(C(=O)O)(C(=O)O)CC2      melting point                160 °C
11  Cc1oc2c(-c3ccc(F)cc3)c(-c3ccc(S(C)(=O)=O)cc3)nn2c1C      melting point         158 to 160 °C
12  Cc1nn([N+](=O)[O-])cc1-c1ncc([N+](=O)[O-])n1C      melting point                148 °C
13  CCOC(C(N)=O)N(c1ccc(Cl)cc1Cc1c(F)cccc1F)S(=O)(=O)c1ccc(OC)c(OC)c1 (stereo unspecified)      melting point                154 °C
14  CNC(=C[N+](=O)[O-])NCCSCc1cc(CN(C)C)ccn1      melting point         113 to 115 °C
15                      CC(=O)Nc1ncc(SC#N)s1      melting point                212 °C
16   C=C1C(=O)N[C@@H](Cc2ccccc2)C(=O)N1C(C)C      melting point         141 to 142 °C
17  CC(C)C[C@H](NC(=O)OCc1ccccc1)C(=O)N[C@@H](Cc1ccccc1)C(=O)CS      melting point                171 °C
18  C=CCOc1ccc(C=CC(=O)Oc2ccc(OC(=O)C(=C)C)cc2)cc1      melting point                118 °C
19  C[C@@H](Nc1c(NCc2ccc(Cl)cc2Cl)c(=O)c1=O)C(C)(C)C      melting point         235 to 239 °C
20  CCCN1C(=O)N2CC(Cc3ccccc3)N=C2c2[nH]c(C(C)OCC)nc21 (stereo unspecified)      melting point         165 to 170 °C
21  COc1cc(Nc2c(C#N)cnc3sc(-c4ccc(C=O)cc4)cc23)c(Cl)cc1Cl      melting point              > 240 °C
22        C=CCN/C(=C1/Sc2ccccc2C1=O)c1ccccc1      melting point         104 to 106 °C
23          CC(=O)N1CC=C(c2cc(C)c(O)cc2C)CC1      melting point                220 °C
24                      CCC(=O)NCCCSc1ccncc1      melting point           50 to 51 °C
25  O=C(O)[C@@H]1CCCC[C@H]1C(=O)CS (relative stereo)      melting point         112 to 117 °C
26  CCC(=O)Oc1ccc2c(c1)CCC1C2CCC2(C)C1CC(O)C2OC(=O)CC (stereo unspecified)      melting point                105 °C
27  CCC(=O)NC1Cc2ccccc2C(c2ccccc2)C1 (stereo unspecified)      melting point         144 to 146 °C
28  COC(=O)CCCc1cc2nc(Cl)ccc2n1S(=O)(=O)c1cccc(Br)c1      melting point                109 °C
29       CC(=O)NCCc1nc(-c2csc(N=C(N)N)n2)cs1      melting point         226 to 227 °C
30  COC(=O)c1c(Cl)cc(Cl)cc1NC(=O)C(C)c1ccccc1 (stereo unspecified)      melting point           83 to 84 °C
31        COC(=O)C(=NOCF)c1ccccc1COc1ccccc1C      melting point         101 to 102 °C
32             Cc1ccc(C(Cl)=NOS(C)(=O)=O)cc1      melting point         100 to 102 °C
33  CCOc1ccc(OCCCN2CCC(C(O)(c3ccc(F)cc3)c3ccc(F)cc3)CC2)cc1      melting point           89 to 91 °C
34   CCc1nc2c(N)nc3ccccc3c2n1CCCCNC(=O)C(C)C      melting point         155 to 156 °C
35  O=C(Cc1ccccc1)NCC(O)c1ccccc1 (stereo unspecified)      melting point           97 to 99 °C
36  CCOC(=O)c1cc(C)n(-c2cccc(C(N)=O)c2)c1-c1ccccc1      melting point         209 to 210 °C
37                 CCCCCCn1c2ccccc2c2ccccc21      melting point       62.5 to 64.1 °C
38  CC(=O)OC1CSC(Oc2ccc(-c3cccnc3)nc2Cl)C(OC(C)=O)C1OC(C)=O (stereo unspecified)      melting point                155 °C
39  O=C(O)Cc1ccc(OCc2ccc3oc([N+](=O)[O-])c(-c4ccccc4)c3c2)cc1      melting point         179 to 180 °C
40                      NC(=O)c1nccc(Cl)c1Cl      melting point         174 to 175 °C
